Form field: IC50 (one value per entry).
tested.system: T1, EphB4 Fc (UniProt P54761 16-539)
T1 chain: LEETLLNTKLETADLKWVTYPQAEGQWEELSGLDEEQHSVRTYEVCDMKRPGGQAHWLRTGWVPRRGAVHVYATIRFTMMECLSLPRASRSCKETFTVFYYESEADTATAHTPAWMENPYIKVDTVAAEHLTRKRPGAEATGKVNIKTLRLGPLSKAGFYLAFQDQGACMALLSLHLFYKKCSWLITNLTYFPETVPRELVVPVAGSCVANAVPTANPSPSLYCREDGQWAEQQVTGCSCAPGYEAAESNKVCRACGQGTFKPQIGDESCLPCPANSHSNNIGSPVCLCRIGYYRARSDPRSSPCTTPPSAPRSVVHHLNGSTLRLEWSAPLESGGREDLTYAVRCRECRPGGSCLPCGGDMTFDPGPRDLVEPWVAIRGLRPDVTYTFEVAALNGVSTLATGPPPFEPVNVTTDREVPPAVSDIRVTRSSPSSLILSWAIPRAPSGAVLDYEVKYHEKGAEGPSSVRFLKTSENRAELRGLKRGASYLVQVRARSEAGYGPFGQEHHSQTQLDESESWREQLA
assay.text: ELISA; competition with ephrin-B2 AP
Ends that are not written are not given here.

Examples from the recorded data:
>>> observed_result("{PEG 40 kDa branched (NHS-glutaryl)}-TNYLFSPNGPIARAW [PEGylated TNYL-RAW (PEG-TNYL-RAW)]")
"24 nM"
>>> observed_result("TNYLFSPNGPIARAWGSGSK (Fc fusion) [TNYL-RAW fused with human Fc (TNYL-RAW-Fc)]")
"6.5 nM"

Query block: Name the reported IC50 value associated with the binder TNYLFSPNGPIARAW [TNYL-RAW peptide]
Result block: 13 nM

Entry source: paper PMC3237458
